All values here come from paper PMC11774580.

# measured.on: human OAT4 (Homo sapiens)
# Sequence (Q9NSA0 1-550): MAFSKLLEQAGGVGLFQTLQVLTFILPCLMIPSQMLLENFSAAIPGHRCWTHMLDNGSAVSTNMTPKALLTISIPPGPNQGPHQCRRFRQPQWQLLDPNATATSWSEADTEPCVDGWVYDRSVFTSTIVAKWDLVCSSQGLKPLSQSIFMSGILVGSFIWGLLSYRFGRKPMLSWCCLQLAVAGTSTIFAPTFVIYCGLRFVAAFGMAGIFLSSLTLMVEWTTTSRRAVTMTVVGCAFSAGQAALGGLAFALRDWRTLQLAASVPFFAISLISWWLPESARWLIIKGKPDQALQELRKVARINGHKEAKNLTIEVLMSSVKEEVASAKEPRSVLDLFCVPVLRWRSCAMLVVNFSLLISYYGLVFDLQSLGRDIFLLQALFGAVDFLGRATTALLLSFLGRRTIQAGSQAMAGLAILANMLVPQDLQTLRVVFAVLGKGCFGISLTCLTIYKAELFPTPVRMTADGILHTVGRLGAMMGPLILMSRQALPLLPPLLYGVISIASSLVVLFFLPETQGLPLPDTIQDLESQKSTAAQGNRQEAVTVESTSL
# method.description: hOAT4 substrate
# Format: in vitro ADME
# measurement.context: 1 μM PFAS screen

- compound: "O=S(=O)(O)C(F)(F)C(F)(F)C(F)(F)C(F)(F)F [PFBS, Perfluorobutane sulfonic acid]"
  measured.on: "human OAT4 (Homo sapiens)"
  hOAT4 uptake ratio, fold: "greater than 2 fold"
- compound: "O=C(O)C(F)(F)C(F)(F)C(F)(F)C(F)(F)C(F)(F)C(F)(F)C(F)(F)F [PFOA, perfluorooctanoic acid]"
  measured.on: "human OAT4 (Homo sapiens)"
  hOAT4 uptake ratio, fold: "greater than 2 fold"
- compound: "O=C(O)C(F)(F)C(F)(F)C(F)(F)C(F)(F)C(F)(F)C(F)(F)C(F)(F)C(F)(F)F [PFNA, perfluorononanoic acid]"
  measured.on: "human OAT4 (Homo sapiens)"
  hOAT4 uptake ratio, fold: "greater than 2 fold"
- compound: "O=S(=O)(O)CCC(F)(F)C(F)(F)C(F)(F)C(F)(F)C(F)(F)C(F)(F)F [6:2FTS, 6:2 fluorotelomer sulfonate]"
  measured.on: "human OAT4 (Homo sapiens)"
  hOAT4 uptake ratio, fold: "greater than 2 fold"
- compound: "O=S(=O)(O)C(F)(F)C(F)(F)C(F)(F)C(F)(F)C(F)(F)C(F)(F)F [PFHxS, perfluorohexane sulfonic acid]"
  measured.on: "human OAT4 (Homo sapiens)"
  hOAT4 uptake ratio, fold: "greater than 2 fold"
